Target: human M1 (Homo sapiens)
Sequence (P11229 whole entry): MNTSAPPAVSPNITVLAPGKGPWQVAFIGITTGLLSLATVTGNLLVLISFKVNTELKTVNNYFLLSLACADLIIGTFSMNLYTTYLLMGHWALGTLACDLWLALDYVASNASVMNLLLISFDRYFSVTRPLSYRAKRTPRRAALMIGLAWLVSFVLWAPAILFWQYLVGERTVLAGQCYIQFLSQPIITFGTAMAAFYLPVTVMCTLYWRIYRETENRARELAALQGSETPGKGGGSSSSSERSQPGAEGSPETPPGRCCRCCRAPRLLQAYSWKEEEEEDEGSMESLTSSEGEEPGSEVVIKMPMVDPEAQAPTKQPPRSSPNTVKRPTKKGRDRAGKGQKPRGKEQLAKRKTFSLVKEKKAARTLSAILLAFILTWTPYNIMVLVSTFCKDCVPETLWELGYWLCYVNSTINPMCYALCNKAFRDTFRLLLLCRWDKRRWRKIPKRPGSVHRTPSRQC
Test: mAChR selectivity, PAM activity at human M1
Details: read-out: human M1 EC50; PAM activity
pEC50: −log10 of the molar value.

{"compound": "CCCN(C(=O)C1CCN(S(=O)(=O)c2ccc3[nH]ncc3c2)CC1)[C@@H]1CCc2c(F)cccc21 [Compound 18g]", "pEC50": 5.99}

---

Molecular target: human M3 (Homo sapiens, UniProt P20309)
Sequence (P20309 whole entry): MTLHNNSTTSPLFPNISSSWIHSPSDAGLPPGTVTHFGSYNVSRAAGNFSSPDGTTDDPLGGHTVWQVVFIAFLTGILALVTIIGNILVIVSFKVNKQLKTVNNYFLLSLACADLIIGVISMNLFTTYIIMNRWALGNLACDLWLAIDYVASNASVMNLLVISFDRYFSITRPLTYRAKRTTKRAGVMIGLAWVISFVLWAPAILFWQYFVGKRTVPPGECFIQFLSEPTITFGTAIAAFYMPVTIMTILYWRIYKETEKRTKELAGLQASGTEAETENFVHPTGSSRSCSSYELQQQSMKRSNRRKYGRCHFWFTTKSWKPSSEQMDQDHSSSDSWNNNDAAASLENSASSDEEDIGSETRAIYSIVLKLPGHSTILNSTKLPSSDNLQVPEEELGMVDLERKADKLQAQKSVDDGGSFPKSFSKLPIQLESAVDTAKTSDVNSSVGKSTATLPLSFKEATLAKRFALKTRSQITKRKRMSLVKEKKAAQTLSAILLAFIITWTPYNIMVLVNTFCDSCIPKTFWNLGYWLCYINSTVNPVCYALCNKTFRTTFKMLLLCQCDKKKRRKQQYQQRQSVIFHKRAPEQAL
Test: mAChR selectivity, PAM activity at human M3
Conditions: read-out: human M3 EC50; PAM activity

{"molecule": "CCCN(C(=O)C1CCN(S(=O)(=O)c2ccc3[nH]ncc3c2)CC1)[C@@H]1CCc2c(F)cccc21 [Compound 18g]", "scale_unit": "nM", "EC50": 466}

---

Molecular target: human M5 (Homo sapiens, UniProt P08912)
Sequence (P08912 whole entry): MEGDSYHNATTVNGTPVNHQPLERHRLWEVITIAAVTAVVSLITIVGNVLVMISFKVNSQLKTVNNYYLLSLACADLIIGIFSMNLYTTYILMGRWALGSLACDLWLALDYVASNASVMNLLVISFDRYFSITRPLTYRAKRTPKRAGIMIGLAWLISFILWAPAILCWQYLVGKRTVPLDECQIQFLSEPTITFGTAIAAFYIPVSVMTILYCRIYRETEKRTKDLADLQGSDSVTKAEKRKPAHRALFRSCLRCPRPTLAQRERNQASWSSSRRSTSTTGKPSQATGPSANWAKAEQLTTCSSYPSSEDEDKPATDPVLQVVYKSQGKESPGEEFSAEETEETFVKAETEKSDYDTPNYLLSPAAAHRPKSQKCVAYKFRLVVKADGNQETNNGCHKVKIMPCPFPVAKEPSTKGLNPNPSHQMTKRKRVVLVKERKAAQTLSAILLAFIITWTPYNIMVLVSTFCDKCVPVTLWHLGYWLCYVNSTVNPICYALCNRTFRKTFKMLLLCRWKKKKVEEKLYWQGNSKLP
Experiment: calcium mobilization assay, hM5-CHO cells, FDSS7000
Format: cell-based
Conditions: hM5 EC50, PAM, functional calcium assay, n = 3
pEC50: −log10 of the molar value.

{"smi": "CCN(C(=O)C1CCN(S(=O)(=O)c2ccc3[nH]ncc3c2)CC1)[C@@H]1CCc2ccccc21", "pEC50": 6.32}

---

Biological target: UniProt P08912
Experiment: calcium mobilization assay, hM5-CHO cells, FDSS7000
Format: cell-based
Conditions: hM5 pEC50 ± SEM, PAM, functional calcium assay, n = 3
quantity_measured: EC50 (nM)

{"smi": "CCN(C(=O)C1CCN(S(=O)(=O)c2ccc3[nH]ncc3c2)CC1)[C@@H]1CCc2ccccc21", "scale_unit": "nM", "observed_measurement": 457}

---

Assay: plasma protein binding, rat
Type: in vitro ADME
quantity_measured: fraction unbound

{"smi": "CCN(C(=O)C1CCN(S(=O)(=O)c2ccc3[nH]ncc3c2)CC1)[C@@H]1CCc2ccccc21", "quantity_measured": "fraction unbound", "observed_measurement": 0.043}

---

Target: rat M5 (Rattus norvegicus, UniProt P08911)
Sequence (P08911 whole entry): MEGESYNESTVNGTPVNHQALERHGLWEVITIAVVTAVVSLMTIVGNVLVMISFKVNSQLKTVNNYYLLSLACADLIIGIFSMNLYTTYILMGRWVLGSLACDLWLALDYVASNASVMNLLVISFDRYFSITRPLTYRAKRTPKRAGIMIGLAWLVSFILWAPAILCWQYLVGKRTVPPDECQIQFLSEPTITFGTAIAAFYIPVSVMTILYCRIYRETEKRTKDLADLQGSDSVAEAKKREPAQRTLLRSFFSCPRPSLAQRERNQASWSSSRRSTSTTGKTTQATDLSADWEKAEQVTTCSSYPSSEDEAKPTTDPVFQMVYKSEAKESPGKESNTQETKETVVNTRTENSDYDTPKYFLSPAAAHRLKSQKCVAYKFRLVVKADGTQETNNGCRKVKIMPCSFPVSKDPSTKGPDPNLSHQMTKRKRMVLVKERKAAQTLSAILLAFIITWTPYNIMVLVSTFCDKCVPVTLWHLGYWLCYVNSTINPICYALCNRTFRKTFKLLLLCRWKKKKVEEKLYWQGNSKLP
Test: calcium mobilization assay, rM5-CHO cells, FDSS7000
Assay type: cell-based
Conditions: read-out: rM5 EC50; PAM, functional calcium assay, n = 3
pEC50: −log10 of the molar value.
quantity_measured: pEC50

{"compound": "CCCN(C(=O)C1CCN(S(=O)(=O)c2ccc3[nH]ncc3c2)CC1)[C@@H]1CCc2c(F)cccc21 [Compound 18g]", "quantity_measured": "pEC50", "observed_measurement": 7.13}

---

Target: rat M5 (Rattus norvegicus, UniProt P08911)
Assay: calcium mobilization assay, rM5-CHO cells, FDSS7000
Format: cell-based
Conditions: rM5 EC50, PAM, functional calcium assay, n = 3
pEC50: −log10 of the molar value.

{"molecule": "CCN(C(=O)C1CCN(S(=O)(=O)c2ccc3[nH]ncc3c2)CC1)[C@@H]1CCc2ccccc21 [Compound 8]", "pEC50": 6.39}

---

Target: rat M4 (Rattus norvegicus)
Sequence (P08485 whole entry): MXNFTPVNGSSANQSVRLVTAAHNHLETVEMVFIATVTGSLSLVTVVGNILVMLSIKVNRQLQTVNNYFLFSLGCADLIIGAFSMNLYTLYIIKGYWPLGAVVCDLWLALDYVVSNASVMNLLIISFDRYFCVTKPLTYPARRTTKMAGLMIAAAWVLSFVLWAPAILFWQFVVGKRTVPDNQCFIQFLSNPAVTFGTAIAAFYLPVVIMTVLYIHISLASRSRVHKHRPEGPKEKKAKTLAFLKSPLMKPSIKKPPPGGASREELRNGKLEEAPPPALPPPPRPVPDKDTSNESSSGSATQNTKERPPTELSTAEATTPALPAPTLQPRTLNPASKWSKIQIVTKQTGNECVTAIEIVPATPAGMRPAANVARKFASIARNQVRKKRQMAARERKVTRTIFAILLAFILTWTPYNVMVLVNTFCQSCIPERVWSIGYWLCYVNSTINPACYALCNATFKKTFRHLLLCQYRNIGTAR
Assay: mAChR selectivity, PAM activity at rat M4
Type: cell-based
Details: read-out: rat M4 EC50

{"molecule": "CCCN(C(=O)C1CCN(S(=O)(=O)c2ccc3[nH]ncc3c2)CC1)[C@@H]1CCc2c(F)cccc21 [Compound 18g]", "EC50, µM": 3.91}

---

Biological target: UniProtKB P08483
Sequence (P08483 whole entry): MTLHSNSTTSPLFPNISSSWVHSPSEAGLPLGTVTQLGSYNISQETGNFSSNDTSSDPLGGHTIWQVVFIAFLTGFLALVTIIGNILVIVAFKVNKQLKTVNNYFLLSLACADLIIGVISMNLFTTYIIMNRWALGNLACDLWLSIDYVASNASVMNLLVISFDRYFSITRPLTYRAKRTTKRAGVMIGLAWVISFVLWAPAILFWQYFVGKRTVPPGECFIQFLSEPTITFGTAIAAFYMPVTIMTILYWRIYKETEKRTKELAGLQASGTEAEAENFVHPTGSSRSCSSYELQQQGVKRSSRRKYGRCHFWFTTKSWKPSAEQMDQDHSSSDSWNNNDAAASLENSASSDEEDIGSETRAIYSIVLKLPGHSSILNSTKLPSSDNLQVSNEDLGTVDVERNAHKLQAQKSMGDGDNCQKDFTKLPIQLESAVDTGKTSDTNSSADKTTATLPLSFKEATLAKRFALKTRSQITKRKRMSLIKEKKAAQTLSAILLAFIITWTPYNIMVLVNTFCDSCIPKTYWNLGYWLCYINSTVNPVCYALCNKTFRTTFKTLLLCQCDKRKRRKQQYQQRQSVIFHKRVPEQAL
Assay: mAChR selectivity, PAM activity at rat M3
Settings: read-out: rat M3 EC50

{"molecule": "CCCN(C(=O)C1CCN(S(=O)(=O)c2ccc3[nH]ncc3c2)CC1)[C@@H]1CCc2c(F)cccc21 [Compound 18g]", "scale_unit": "nM", "EC50": 772}
